- Measurement target: T1, SUMO1(15-55) (human, Where it is the MST target, it carries Alexa Fluor 647 NHS ester on amines (NHS-647); the letters do not show this.)
- T1 construct: Fragment 15-55 of human SUMO1; Recombinant SUMO1 fragments were made with an N-terminal His-tag removed by thrombin; also called SUMO(15-55); SUMO1(15-55) peptide
- T1 peptide: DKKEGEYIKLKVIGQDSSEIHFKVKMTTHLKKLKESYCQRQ
- Test protocol: MST; NHS-647 labelled SUMO1(15-55) as target, peptide titrated as ligand
Metric name: Kd (µM)

P = EGVLYVGSKTK (Synthesized peptide fragment of α-synuclein; also called β1 strand peptide; β1-strand peptide-αsyn (35-45)) [αsyn(35-45)]
Q = VTAVAQKTVEG (Peptide fragment of α-synuclein; also called β4 strand peptide) [αsyn(74-84)]
Short answer wanted: higher Kd, P or Q ? Record your answer as the label of the chosen record.
Q
(Q: 2.21 µM, P: 1.15 µM)
